Each recorded value in this set is attributed to the RNAGym collection of RNA variant scans (doi:10.1038/s41586-018-0170-7).

yeast fitness (ln): recorded values
B1: tRNA (parent)
chain: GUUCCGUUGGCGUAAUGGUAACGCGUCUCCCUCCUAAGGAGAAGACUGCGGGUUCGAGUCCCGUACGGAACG

# Variants of: B1
# Protocol Notes: yeast fitness, log relative to wild type (ln ratio); higher = fitter; tRNA-Arg(CCU), competitive growth, 37 C, 1 M NaCl
Assay Metric: yeast fitness (ln)

- Mutation Label: "G1A A43C A69G C71U"
  Assay Metric: "yeast fitness (ln)"
  Recorded Number: -0.0687
- Mutation Label: "G1A C27U A43C C66A A69G A70G"
  Assay Metric: "yeast fitness (ln)"
  Recorded Number: -0.279
- Mutation Label: "U2C C27U C46U C66U A70G"
  Assay Metric: "yeast fitness (ln)"
  Recorded Number: -0.04
- Mutation Label: "U2C G6A C66A A70G C71U"
  Assay Metric: "yeast fitness (ln)"
  Recorded Number: -0.286
- Mutation Label: "G6A C27U A43C C46U C66U A70G"
  Assay Metric: "yeast fitness (ln)"
  Recorded Number: -0.193
- Mutation Label: "U2G G6A A43C C46U C66U A70U C71U"
  Assay Metric: "yeast fitness (ln)"
  Recorded Number: -0.175
- Mutation Label: "U2C G6U C27U A43C A70U"
  Assay Metric: "yeast fitness (ln)"
  Recorded Number: -0.2
- Mutation Label: "U2C G6A A43C C66U"
  Assay Metric: "yeast fitness (ln)"
  Recorded Number: -0.121
- Mutation Label: "U2C A43C C46U A70G"
  Assay Metric: "yeast fitness (ln)"
  Recorded Number: -0.00469
- Mutation Label: "U2G G6A C27U A43C C66U A70G C71U"
  Assay Metric: "yeast fitness (ln)"
  Recorded Number: -0.29
- Mutation Label: "U2C G6U C27U A43C C46U A70G C71U"
  Assay Metric: "yeast fitness (ln)"
  Recorded Number: -0.132
- Mutation Label: "U2C G6A C46U C66U A69G A70U"
  Assay Metric: "yeast fitness (ln)"
  Recorded Number: -0.138
- Mutation Label: "C27U C46U"
  Assay Metric: "yeast fitness (ln)"
  Recorded Number: -0.0139
- Mutation Label: "U2C G6U C46U C66U A69G A70U"
  Assay Metric: "yeast fitness (ln)"
  Recorded Number: -0.0758
- Mutation Label: "G6U C27U A43C A69G C71U"
  Assay Metric: "yeast fitness (ln)"
  Recorded Number: -0.384
- Mutation Label: "G1A C27U C46U A69G"
  Assay Metric: "yeast fitness (ln)"
  Recorded Number: -0.304
- Mutation Label: "U2G C27U C46U C66U"
  Assay Metric: "yeast fitness (ln)"
  Recorded Number: -0.0703
- Mutation Label: "U2G C27U C66U C71U"
  Assay Metric: "yeast fitness (ln)"
  Recorded Number: -0.194
- Mutation Label: "G1A A43C C46U C66U A69G A70U C71U"
  Assay Metric: "yeast fitness (ln)"
  Recorded Number: -0.469
- Mutation Label: "G1A C27U A43C C46U C66U C71U"
  Assay Metric: "yeast fitness (ln)"
  Recorded Number: -0.219
- Mutation Label: "G1A C27U A70U C71U"
  Assay Metric: "yeast fitness (ln)"
  Recorded Number: -0.34
- Mutation Label: "U2C G6A C46U C71U"
  Assay Metric: "yeast fitness (ln)"
  Recorded Number: -0.0887
- Mutation Label: "G1A G6U C27U C46U A70U"
  Assay Metric: "yeast fitness (ln)"
  Recorded Number: -0.274
- Mutation Label: "G1A U2C G6A A43C C46U C66U A70G"
  Assay Metric: "yeast fitness (ln)"
  Recorded Number: -0.0356
- Mutation Label: "G1A U2C A43C C46U C66U A69G A70G"
  Assay Metric: "yeast fitness (ln)"
  Recorded Number: -0.0919
- Mutation Label: "U2C G6U C27U C66U A69G A70G"
  Assay Metric: "yeast fitness (ln)"
  Recorded Number: -0.277
- Mutation Label: "G6A C27U A43C A70U C71U"
  Assay Metric: "yeast fitness (ln)"
  Recorded Number: -0.322
- Mutation Label: "G6U C27U C66A C71U"
  Assay Metric: "yeast fitness (ln)"
  Recorded Number: -0.109
- Mutation Label: "U2G C27U C46U C66A A69G C71U"
  Assay Metric: "yeast fitness (ln)"
  Recorded Number: -0.301
- Mutation Label: "U2G G6U C27U C46U A69G"
  Assay Metric: "yeast fitness (ln)"
  Recorded Number: -0.255
- Mutation Label: "U2C G6A C27U C66U C71U"
  Assay Metric: "yeast fitness (ln)"
  Recorded Number: -0.161
- Mutation Label: "C27U C66U A69G A70G C71U"
  Assay Metric: "yeast fitness (ln)"
  Recorded Number: -0.262
- Mutation Label: "G6A C27U A69G A70G C71U"
  Assay Metric: "yeast fitness (ln)"
  Recorded Number: -0.265
- Mutation Label: "U2C G6U C27U C46U C66A A69G A70U"
  Assay Metric: "yeast fitness (ln)"
  Recorded Number: -0.114
- Mutation Label: "U2G G6U C46U C66A A70G"
  Assay Metric: "yeast fitness (ln)"
  Recorded Number: -0.0357
- Mutation Label: "U2C C27U A43C A69G A70U"
  Assay Metric: "yeast fitness (ln)"
  Recorded Number: -0.136
- Mutation Label: "G1A U2G G6A C27U A43C C66U A69G A70U C71U"
  Assay Metric: "yeast fitness (ln)"
  Recorded Number: -0.489
- Mutation Label: "U2C C27U A43C C46U C66A A70U C71U"
  Assay Metric: "yeast fitness (ln)"
  Recorded Number: -0.269
- Mutation Label: "G1A G6U C27U C46U C66U A70U C71U"
  Assay Metric: "yeast fitness (ln)"
  Recorded Number: -0.438
- Mutation Label: "G1A U2C G6U C46U A70G"
  Assay Metric: "yeast fitness (ln)"
  Recorded Number: -0.239
- Mutation Label: "G1A U2G G6U C27U C46U A70G"
  Assay Metric: "yeast fitness (ln)"
  Recorded Number: -0.274
- Mutation Label: "G1A U2G G6U A43C C66U A70G"
  Assay Metric: "yeast fitness (ln)"
  Recorded Number: -0.271
- Mutation Label: "U2C C27U A43C C46U C66U A69G A70G C71U"
  Assay Metric: "yeast fitness (ln)"
  Recorded Number: -0.216
- Mutation Label: "G1A U2G G6A A43C C46U C66A A70G"
  Assay Metric: "yeast fitness (ln)"
  Recorded Number: -0.26
- Mutation Label: "U2C A43C A70G C71U"
  Assay Metric: "yeast fitness (ln)"
  Recorded Number: -0.0158
- Mutation Label: "G6U C27U C66A A69G"
  Assay Metric: "yeast fitness (ln)"
  Recorded Number: -0.0157
- Mutation Label: "U2C G6A A43C C46U A70G C71U"
  Assay Metric: "yeast fitness (ln)"
  Recorded Number: -0.112
- Mutation Label: "G1A G6U A43C C46U C66U A69G A70U"
  Assay Metric: "yeast fitness (ln)"
  Recorded Number: -0.305
- Mutation Label: "U2G G6U C27U C46U C66A"
  Assay Metric: "yeast fitness (ln)"
  Recorded Number: -0.144
- Mutation Label: "U2G A43C C46U C66A A70G"
  Assay Metric: "yeast fitness (ln)"
  Recorded Number: -0.119
- Mutation Label: "U2C G6U A43C C46U C66A"
  Assay Metric: "yeast fitness (ln)"
  Recorded Number: -0.0972
- Mutation Label: "G1A G6U C27U A43C C46U C66U A70U C71U"
  Assay Metric: "yeast fitness (ln)"
  Recorded Number: -0.471
- Mutation Label: "G1A U2G C46U A70G C71U"
  Assay Metric: "yeast fitness (ln)"
  Recorded Number: -0.166
- Mutation Label: "U2C G6A C27U C66U A69G A70U C71U"
  Assay Metric: "yeast fitness (ln)"
  Recorded Number: -0.386
- Mutation Label: "U2G C46U A69G A70G"
  Assay Metric: "yeast fitness (ln)"
  Recorded Number: -0.131
- Mutation Label: "G1A U2C C46U C66U A69G A70G C71U"
  Assay Metric: "yeast fitness (ln)"
  Recorded Number: -0.0168
- Mutation Label: "G1A C27U A43C C46U C66A A70G C71U"
  Assay Metric: "yeast fitness (ln)"
  Recorded Number: -0.211
- Mutation Label: "C27U A43C C66A A70U C71U"
  Assay Metric: "yeast fitness (ln)"
  Recorded Number: -0.347
- Mutation Label: "G1A U2G G6U C27U A43C A70G"
  Assay Metric: "yeast fitness (ln)"
  Recorded Number: -0.419
- Mutation Label: "G1A G6U C27U A43C C66U A70G"
  Assay Metric: "yeast fitness (ln)"
  Recorded Number: -0.609
- Mutation Label: "U2G C27U C66U A70U"
  Assay Metric: "yeast fitness (ln)"
  Recorded Number: -0.0967
- Mutation Label: "U2G G6U A43C C46U A70G"
  Assay Metric: "yeast fitness (ln)"
  Recorded Number: -0.138
- Mutation Label: "G1A U2G G6A C46U A69G C71U"
  Assay Metric: "yeast fitness (ln)"
  Recorded Number: -0.193
- Mutation Label: "U2C G6U A43C C46U C66A A70U C71U"
  Assay Metric: "yeast fitness (ln)"
  Recorded Number: -0.153
- Mutation Label: "U2G G6U C27U C66A A69G A70U"
  Assay Metric: "yeast fitness (ln)"
  Recorded Number: -0.0809
- Mutation Label: "G6U C46U"
  Assay Metric: "yeast fitness (ln)"
  Recorded Number: -0.0183
- Mutation Label: "C66U A69G A70U"
  Assay Metric: "yeast fitness (ln)"
  Recorded Number: -0.0858
- Mutation Label: "G1A U2G G6A C46U A69G A70U"
  Assay Metric: "yeast fitness (ln)"
  Recorded Number: -0.165
- Mutation Label: "G6A C27U A43C C66U A69G"
  Assay Metric: "yeast fitness (ln)"
  Recorded Number: -0.373
- Mutation Label: "U2C G6U C27U C66A A69G A70G"
  Assay Metric: "yeast fitness (ln)"
  Recorded Number: -0.0927
- Mutation Label: "A43C C66U A70U"
  Assay Metric: "yeast fitness (ln)"
  Recorded Number: -0.105
- Mutation Label: "C66U A70G"
  Assay Metric: "yeast fitness (ln)"
  Recorded Number: -0.0949
- Mutation Label: "U2G C27U A43C C66U C71U"
  Assay Metric: "yeast fitness (ln)"
  Recorded Number: -0.364
